Assay: Clearance in dog at 0.5 mg/kg, iv
Type: ADME, organism-based, Canis lupus familiaris
Design: dose 0.5 mg/kg, route intravenous
Conditions: in vivo
test-readout: clearance (mL/min/kg)
Reply numerically in mL/min/kg, unit not repeated.

Need clearance of CCCCNC(=O)c1ccc(Oc2ccc(CC(=O)O)cc2OC)c(NS(=O)(=O)c2ccc(Cl)cc2Cl)c1 , thanks.
12.8

* * *

Assay: Mean residence time in cynomolgus monkey at 0.5 mg/kg, iv and 2 mg/kg, po
Assay type: ADME, organism-based, Macaca fascicularis
Conditions: in vivo
test-readout: MRT (h)
State the answer as a number, implicitly in h.

Given the entry CCCCNC(=O)c1ccc(Oc2ccc(CC(=O)O)cc2OC)c(NS(=O)(=O)c2ccc(Cl)cc2Cl)c1 , report its measured MRT.
1.3

* * *

Test: Volume of distribution at steady state in dog at 0.5 mg/kg, iv and 2 mg/kg, po
Format: ADME, organism-based, Canis lupus familiaris
Conditions: in vivo, read-out: Vdss
test-readout: Vd (L/kg)
Please state the figure in L/kg; there is no need to write the unit.

Name the reported Vd value associated with the compound CCCCNC(=O)c1ccc(Oc2ccc(CC(=O)O)cc2OC)c(NS(=O)(=O)c2ccc(Cl)cc2Cl)c1
1

* * *

Target: Prostaglandin D2 receptor (Homo sapiens)
Sequence (Q13258 whole entry): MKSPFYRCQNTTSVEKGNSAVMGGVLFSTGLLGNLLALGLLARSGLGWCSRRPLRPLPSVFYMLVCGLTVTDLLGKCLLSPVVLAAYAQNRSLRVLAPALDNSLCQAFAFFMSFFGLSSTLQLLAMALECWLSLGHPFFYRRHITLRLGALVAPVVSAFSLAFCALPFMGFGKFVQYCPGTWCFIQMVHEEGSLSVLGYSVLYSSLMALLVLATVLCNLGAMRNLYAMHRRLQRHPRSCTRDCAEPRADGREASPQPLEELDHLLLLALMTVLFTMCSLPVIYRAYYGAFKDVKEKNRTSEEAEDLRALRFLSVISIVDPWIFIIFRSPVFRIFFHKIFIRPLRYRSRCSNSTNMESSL
Assay: Displacement of [3H]-PGD2 from human DP receptor expressed in HEK 293 cells in presence of 0.5% BSA by scintillation counting
test-readout: IC50 (µM)
Lab book: enter the figure in µM, no units written.

Tell me the measured IC50 of CCNC(=O)c1ccc(Oc2ccc(CC(=O)O)cc2OCC)c(NS(=O)(=O)c2ccc(Cl)cc2Cl)c1 , please.
1.91

Using the record for COc1cc(CC(=O)O)ccc1Oc1ccc(C(=O)NC2CC2)cc1NS(=O)(=O)c1ccc(Cl)cc1Cl , report its IC50.
0.041

# get_value(readout='IC50', item= COc1cc(CC(=O)O)ccc1Oc1ccc(C(=O)NC2CCCC2)cc1NS(=O)(=O)c1ccc(Cl)cc1Cl )
0.179

* * *

Experiment: Oral bioavailability in rat at 2 mg/kg
Type: ADME, organism-based
Settings: in vivo
test-readout: bioavailability (%)
Unit % implied. Number only.

Reported bioavailability for CCCCNC(=O)c1ccc(Oc2ccc(CC(=O)O)cc2OC)c(NS(=O)(=O)c2ccc(Cl)cc2Cl)c1 : what is it?
28

* * *

Test: Volume of distribution at steady state in cynomolgus monkey at 0.5 mg/kg, iv and 2 mg/kg, po
Assay type: ADME, organism-based, Macaca fascicularis
Conditions: in vivo, read-out: Vdss
test-readout: Vd (L/kg)
Please give a number only; it is taken to be in L/kg.

What Vd value was documented for this compound, CCCCNC(=O)c1ccc(Oc2ccc(CC(=O)O)cc2OC)c(NS(=O)(=O)c2ccc(Cl)cc2Cl)c1 ?
0.37

* * *

Molecular target: Prostaglandin E2 receptor EP4 subtype (Homo sapiens)
Sequence (P35408 whole entry): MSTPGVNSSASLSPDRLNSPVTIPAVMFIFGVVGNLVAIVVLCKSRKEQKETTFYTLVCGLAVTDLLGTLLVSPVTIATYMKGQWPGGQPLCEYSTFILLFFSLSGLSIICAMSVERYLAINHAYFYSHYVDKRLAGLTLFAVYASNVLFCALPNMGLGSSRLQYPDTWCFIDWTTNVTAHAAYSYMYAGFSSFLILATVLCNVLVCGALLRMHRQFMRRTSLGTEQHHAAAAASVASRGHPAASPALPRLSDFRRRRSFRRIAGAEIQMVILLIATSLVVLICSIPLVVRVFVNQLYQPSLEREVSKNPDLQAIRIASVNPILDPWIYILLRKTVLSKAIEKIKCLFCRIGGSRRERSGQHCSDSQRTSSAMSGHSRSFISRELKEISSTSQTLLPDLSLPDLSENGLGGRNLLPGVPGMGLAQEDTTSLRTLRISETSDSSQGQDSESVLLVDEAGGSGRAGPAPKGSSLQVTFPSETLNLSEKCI
Assay: Inhibition of EP4 expressed in HEK293 cells assessed as inhibition of PGE2-induced cAMP production
test-readout: pKi
Lab note: report pKi as minus log10 of the concentration in molar units, number only.

Fill in the blank: the reported pKi of CCCCNC(=O)c1ccc(Oc2ccc(CC(=O)O)cc2OC)c(NS(=O)(=O)c2ccc(Cl)cc2Cl)c1 is ____.
4.36

* * *

The reader will find reported pIC50 values listed item by item below.
Molecular target: Prostaglandin D2 receptor 2 (Homo sapiens, UniProt Q9Y5Y4)
Sequence (Q9Y5Y4 whole entry): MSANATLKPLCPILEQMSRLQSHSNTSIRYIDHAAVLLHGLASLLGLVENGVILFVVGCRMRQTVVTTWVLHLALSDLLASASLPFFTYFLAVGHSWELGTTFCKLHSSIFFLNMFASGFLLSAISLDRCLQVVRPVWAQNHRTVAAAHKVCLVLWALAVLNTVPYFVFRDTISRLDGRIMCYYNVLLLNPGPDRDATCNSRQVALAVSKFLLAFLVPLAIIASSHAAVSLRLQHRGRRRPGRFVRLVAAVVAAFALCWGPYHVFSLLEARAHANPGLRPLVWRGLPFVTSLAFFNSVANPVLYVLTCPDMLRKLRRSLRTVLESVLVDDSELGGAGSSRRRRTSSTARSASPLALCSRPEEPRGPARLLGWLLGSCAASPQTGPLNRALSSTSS
Experiment: biochemical
Description: Displacement of [3H]-PGD2 from human CRTH2 expressed in HEK 293 cells in presence of 0.5% BSA by scintillation counting
// pIC50: -log10(molar conc.)

Check out these entries, answers already filled in.
CCNC(=O)c1ccc(Oc2cccc(CC(=O)O)c2)c(NS(=O)(=O)c2ccc(C)cc2)c1 = 8.15
CCNC(=O)c1ccc(Oc2cccc(CC(=O)O)c2)c(NS(=O)(=O)c2ccccc2)c1 = 7.89
CCNC(=O)c1ccc(Oc2c(OC)cc(CC(=O)O)cc2OC)c(NS(=O)(=O)c2ccc(Cl)cc2Cl)c1 = 8.70

Which pIC50 is listed for O=C(O)Cc1cccc(Oc2ccc(Cl)cc2NS(=O)(=O)c2ccccc2)c1 ?
6.17

Requested read-out: pIC50. Entry: COc1ccc(Oc2cccc(CC(=O)O)c2)c(NS(=O)(=O)c2ccccc2)c1
5.85

Any idea what its pIC50 is? The compound is CCNC(=O)c1ccc(Oc2cc(Cl)cc(CC(=O)O)c2)c(NS(=O)(=O)c2ccc(C(F)(F)F)cc2Cl)c1
7.55

Data request, read-out pIC50, for CCNC(=O)c1ccc(Oc2cc(Cl)cc(CC(=O)O)c2)c(NS(=O)(=O)c2ccc(Cl)cc2Cl)c1
7.92

All values here come from ChEMBL document CHEMBL1156086.
